Reported Percent Control values follow for various compounds
# System: CLK2;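 note: KINOMEscan scanMAX binding as percent activity remaining versus control; lower means stronger binding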
# CONDITION NOTES: Compound Concentration (nM):1000

Some entries whose results are on file:
COMPOUND: COc1cccc(-c2c[nH]c3c(N/N=C/c4ccncc4)ncnc23)c1 [GW814408X]
RESULT: 44%

COMPOUND: Cc1cc(O)cc(C)c1/C=C/c1cncc(C(N)=O)c1 [GW435821X]
RESULT: 100%

COMPOUND: Cl.O=C(O[C@H]1CN[C@H](C#Cc2cc3ncnc(Nc4ccc5c(cnn5Cc5ccccc5)c4)c3s2)C1)N1CCOCC1 [GSK200398A]
RESULT: 100%

COMPOUND: NS(=O)(=O)c1ccc(N/N=C2\C(=O)Nc3ccc(Cl)cc32)cc1 [GW280670X]
RESULT: 100%

COMPOUND: Nc1ncnc2occ(-c3ccc(NC(=O)Nc4cc(C(F)(F)F)ccc4F)cc3)c12 [GW770249X]
RESULT: 100%

Tell me the measured Percent Control of COc1cc(N2CCN(C(C)C)CC2)ccc1Nc1nc(Nc2ccc(F)cc2C(=O)NC[C@@H](O)CO)c2cc[nH]c2n1 [GSK1392956A] , please.
2.6%
